Known IC50 of a selection of compounds
Tested on: Plasmodium berghei
Experiment: Anti-plasmodial activity against pre-erythrocytic stage Plasmodium berghei infected in human Huh-7 cells by bioluminescence assay
Type: functional, organism-based
Lab book: enter the figure in µM, no units written.

Known value: Plasmodium berghei IC50 of the compound CCOC(=O)c1c(C)nc(OCc2cn(CC(=O)O[C@H]3[C@H](C)O[C@@H](O[C@@H]4/C(C)=C/C[C@@H]5C[C@@H](C[C@]6(CC[C@H](C)[C@@H](C(C)CC)O6)O5)OC(=O)[C@@H]5C=C(C)[C@@H](O)[C@H]6OC/C(=C\C=C\[C@@H]4C)[C@]65O)C[C@@H]3OC)nn2)nc1-c1cc(OC)c(OC)cc1[N+](=O)[O-] (some centres not stated) equals 1.54

Known value: Plasmodium berghei IC50 of the compound CCC(C)[C@H]1O[C@]2(CC[C@@H]1C)C[C@@H]1C[C@@H](C/C=C(\C)[C@@H](O[C@H]3C[C@H](OC)[C@@H](O)[C@H](C)O3)[C@@H](C)/C=C/C=C3\CO[C@@H]4[C@H](O)C(C)=C[C@@H](C(=O)O1)[C@]34O)O2 (some centres not stated) equals 5.63

* * *

System: Plasmodium berghei
Assay: Anti-plasmodial activity against pre-erythrocytic stage Plasmodium berghei infected in human Huh-7 cells at 10 to 500 nM by bioluminescence assay
Assay type: functional, organism-based
Conditions: dose 10-500 nM
Activity calls are given as the source filed them. The rule behind the calls is not given here.
Give your call using only these classes: active, inactive

Worked set:
Prompt line: For this compound, state the assay outcome: CCC(C)[C@H]1O[C@]2(CC[C@@H]1C)C[C@@H]1C[C@@H](C/C=C(\C)[C@@H](O[C@H]3C[C@H](OC)[C@@H](OC(=O)CCl)[C@H](C)O3)[C@@H](C)/C=C/C=C3\CO[C@@H]4[C@H](O[Si](C)(C)C(C)(C)C)C(C)=C[C@@H](C(=O)O1)[C@]34O)O2 (some centres undefined)
Response line: inactive

Prompt line: For this compound, state the assay outcome: CCC(C)[C@H]1O[C@]2(CC[C@@H]1C)C[C@@H]1C[C@@H](C/C=C(\C)[C@@H](O[C@H]3C[C@H](OC)[C@@H](O[C@H]4C[C@H](OO)[C@@H](O)[C@H](C)O4)[C@H](C)O3)[C@@H](C)/C=C/C=C3\CO[C@@H]4[C@H](O)C(C)=C[C@@H](C(=O)O1)[C@]34O)O2 (some centres undefined)
Response line: active

Prompt line: For this compound, state the assay outcome: CCC(C)[C@H]1O[C@]2(CC[C@@H]1C)C[C@@H]1C[C@@H](C/C=C(\C)[C@@H](O[C@H]3C[C@H](OC)[C@@H](O)[C@H](C)O3)[C@@H](C)/C=C/C=C3\CO[C@@H]4[C@H](O)C(C)=C[C@@H](C(=O)O1)[C@]34O)O2 (some centres undefined)
Response line: inactive

Could you now look at the following compound, please?
Prompt line: For this compound, state the assay outcome: CCC(C)[C@H]1O[C@]2(CC[C@@H]1C)C[C@@H]1C[C@@H](C/C=C(\C)[C@@H](O[C@H]3C[C@H](OC)[C@@H](O)[C@H](C)O3)[C@@H](C)/C=C/C=C3\CO[C@@H]4[C@H](O)C(CO)=C[C@@H](C(=O)O1)[C@]34O)O2 (some centres undefined)
Response line: inactive
